Assay: soluble fraction after stress (log2 fold change); higher = more stays soluble; pooled small domains, quantitative proteomics
Conditions: stress: pH 4
attribute-measured: soluble fraction (log2)
Form: value (number only, do not type unit).

Take a look at these entries with their results.
# sequence-data, endpoint-result
measured = [
    ("HMGPAVGAIRVEGNKRVEPETVRTYLTFNVGDPYDLAKVDESLKALFATGLFQDVRIRREGNTVVIVVVEN", -1.07),
    ("HMGTLPSLAPSGEKTVRLPNLAGWSLRETMEILQKGGLQLLPIGSGISFKQSPPPGTTLNEGDAVTVWF", 0.103),
]

What soluble fraction (log2) value was documented for this sequence, `HMVQISNTDDLYPIVQRIVDANPQSVEDYKNGKAKALGFLVGQMMKETKGKANPSMVNDLIIKAIEE` ?
0.0143

Please report the recorded soluble fraction (log2) for `HMSLIHEQSLKEIRIFINNLPESLRTAFTLREQDGLSYEEISKITDTPIGTVRSRIFRARESILEHINEEL` .
-0.599

Consider the sequence `HMVQDSEWWRNYQSAHDYFIQNGHLNVLRSDKKNTKLYNWIVGQRSSRWNSQGRINLLNSIGFIWDT` and give its measured soluble fraction (log2).
-1.65

Entry under review: `HMAQLSDMLTYLRKRKGLSQQELANTLKISRSAIGMYETGKREPDLETLEVFADFYNVDMNTLTGKA` . Reported soluble fraction (log2)?
0.192

Please report the recorded soluble fraction (log2) for `HMNLGDLYVIMEIAGQRDDVSARLMNREGQTFLVKTGTKLKSGDVVKEITPTYIKTDHDGEEAFLYF` .
-1.17

----------
Assay: soluble fraction after stress (log2 fold change); higher = more stays soluble; pooled small domains, quantitative proteomics
Conditions: stress: pH 4
Label rule, in plain words: soluble fraction (log2) of -0.1 and up is satisfied, under -0.1 is not satisfied.

Look over these answered cases.
# sequence-data, category-label
records = [
    ("HMEQKELAPLVPQEDGSVKLTNLAGYSMREVAAALEGGNLSLIPIGSGTSWKQDPAPGTVLQPGNTVTVYF", "not satisfied"),
    ("HMIPESVQGIEEFLATGALKGIGKKTAAAIVHKFGKDTLRIMEEEPERLAEVSGIGEKKAAAIGEAFALH", "not satisfied"),
    ("HMGPIITKTYNLSYATARDVNDIIKSKKSARGDIVIDTRTNSLIVSDVQEKIDLIDEIVATL", "not satisfied"),
    ("HMGDFVIVPDLIGKTIEEFDSELNELNLKYIISDSGNYNPDFKINSVLDQLPNANSKVKGGRKIYITLNAS", "not satisfied"),
    ("HMTYSAWIEKAYSELEKKGITEAELSDALDKRGINLEDLKLMGPDEAVKYQSEVEGVVLELSKSKE", "not satisfied"),
    ("HMKQYVEPASETEKMVVELWEKVLLTEKIGMHDDFFELGGHSLKAMRLISLYHQEFNVRLSLKSLFEKLK", "not satisfied"),
]

Now consider the entry below.
Hi team, for `HMHAPIAELKKVFKEEFADQEVTVRQLAGSVLLSGNVKTAELRENLESVAKQFFPRVINNLKLI` , is the recorded soluble fraction (log2) at or above -0.1?
satisfied

----------
Here, each record is paired with measured soluble fraction (log2) data.
Experiment: soluble fraction after stress (log2 fold change); higher = more stays soluble; pooled small domains, quantitative proteomics
Settings: stress: pH 4
Give your answer as a number; write no unit.

// known answers, use as guide
# sequence-data, endpoint-result
data = [
    ("HMSETVYQYVARQLRDMLGSGEIPVGQQLPTYRELAKRFQVSLSVIQRAMRQLKAEAVVSIAHGQGVKAVR", -0.176),
    ("HMVVADFQNYTVKPKENLYSLTKTSGLSQEELVALNPELKNGVQEGMVIKLPAAVKLMAQPE", 0.22),
    ("HMKRTKLEEATEWLRDRLSDGVKYNGEELLREGESADMARRTLRRAAQELGVIIERERGARGRWFWSLP", 0.254),
]

Proceeding to the next sequence to report its soluble fraction (log2).
// query soluble fraction (log2) value for entry `HMKRITAVISQKKGRDYYYIIVSYYLSNGKRVQRWIKTEFPINGNNKRKLEQKRIEVLQEWQDKLV`
-0.486

----------
Assay: soluble fraction after stress (log2 fold change); higher = more stays soluble; pooled small domains, quantitative proteomics
Settings: stress: pH 4
Just so you know, the groups by soluble fraction (log2) go like this: lower bin (below -0.7), middle bin (-0.7 to below -0.06), upper bin (-0.06 or more)

The examples below pair each entry with its known result.
# sequence-data, category-label
records = [
    ("HMKIQISGSQRIDENVVVKVAGLSFPQSLLSLEPGQIESKLMQELPVQEVSVQRRLLPPGLDIQLVE", "middle bin"),
    ("HMLISYRVDALANEAGLSVDTIRYYQKLGILDPPKRTGRHSEYSPDHLERLIEIRRLADAGLTLSQISEI", "lower bin"),
    ("HMDGEINPYTGREYVTNSVRMHPRRIGYVQVYSRKDHKWTDMTEWAFLGEQERKKVLLGKAYEPPVYL", "upper bin"),
    ("HMKGILVPASSIISDGDKNYVWTVEKGKAKKVEVTLGNADAENQEISSGLTKDSKVITNPTDSLKDGQEV", "upper bin"),
    ("HMEHIVNELDRKVIDYLQSHYDAKLNDIAQGIGVSKATATKSIRKLVQTGIVHVVGSSGTGTSYNLTE", "upper bin"),
    ("HMLKFPIGTHVGKKKPSANLSLPNKHGVVIGHGERRNAKGAIMRFYIVETTHSSRPEEWAPGITYPL", "middle bin"),
]

Which soluble fraction (log2) category applies to `HMAGAPANLAARLREQILQGAYHDGQRLPAERHLAAEHGVSRGTVREALRLLEQGALLTRKRGSGSYVTYP` here?
upper bin

Sort into band: `HMVPLGDLSKNERRAMELAATNGNVTTRALADDAQVTKRTASTTLRRLAKRGLLEWIGKGPSDPGQFYRIP`
middle bin

Category lookup for the sequence `HMESAESRVDLIGMIGEAITDLRPAGTAQFGEERIDVVSESEWITEGSTVKVVSAEGYRHVVRVME`
lower bin

For this sequence, which bin applies? `HMPYSPTPGSAPARLIAHLQEHGDSVNRTAIAELLQVDRKNVHNYLARAVTHGLLLRHGGGAYSLP`
upper bin

Would you mind sorting `HMEAFDYLGRRTRDLLERQGWTTVPLVRDAYLAVPGGERLLQVPGFGRKSLREVRRWLWLQIGDPRFE` into the appropriate category?
upper bin

// bin(item) where item = `HMDGASLLDIDGDGKVTPTIDGLLLMRWQFGTRGAALIGGISFPAGALRTTVNAIELHMRRLSETT`
lower bin

In plain terms, what class is `HMGYDVAEVKFRLIKLLRDSKIGISGVEISERLGINRVTMTKYLNIFSAEGVIGEKNIGNVNLWFVYEGIE` ?
middle bin

Quick check: band for `HMDQTKYDAIITEAKKLTAEGQYKESEEKLATIPVSDLGKPHYSIVKETVEKLNNQNNEGLKRQEEVAVE`
middle bin

Class for `HMRNERDRQLYAAMEKLKAEYREALYLVYFENMSYRDAAAVMAQTEKQISNLVYRGKQSLKTILEQEGF` ?
lower bin

Returns: class label. Input: `HMVEVPNVIGMTKPELTQQFVNLKLDGSGEGDVVVQQSPSEGSKVKEGSTVRVYFG`
upper bin

----------
Test: soluble fraction after stress (log2 fold change); higher = more stays soluble; pooled small domains, quantitative proteomics
Details: stress: pH 4
Decision: soluble fraction (log2) compared against -0.7; not below it gives true, below it gives false.

Below are worked cases with known answers.
# sequence-data, category-label
records = [
    ("HMAIHTSVTEHGEHDLTVRMEMEQVFAIEMAVVSHEQATMLERTFKANAEAIYQKLLGVMTQEYP", "false"),
    ("HMGGGEYTVAKGDTLWKIAAQTLGSPTRYAEIYNLNKDVIEETARGRGKRDSSNGHWLFPGTALKIPGT", "true"),
    ("HMGVTDLFAVLGFPRSPWLDAEELKQRHHALMADEASANSSPTILNEARRTLQNPALRIRHFLALEFPDH", "false"),
    ("HMTNADRFIGEEAMVIKKIDDINNDGQVKIAGQVWSAVSEDKSPLEEGTIVKVIAIRGVKLVVEPVS", "true"),
]

Check this sequence for soluble fraction (log2) at or above -0.7: `HMQTKMVYSDLVNSIKSEQVSSMLVSGNTVTVTLTNGDKAKVKIPSLDTLQADVGKEMNDQMDKGTLKQE`
true

Check if soluble fraction (log2) >= -0.7 (inclusive). Item: `HMVWINIRDLSDLFSKSGKSENSKNILDLQTLKIEKLLGGGQINTPYTIKVKQATPSAIEKVKQAGGEVIL`
true

For this sequence, is measured soluble fraction (log2) -0.7 or higher? `HMVKNTIHVDLKGEVNKPGVYEVEEGTIVNDLITLANGFTKNAYQDNINLSKKLTDEMVIVVSKKGS`
true

Threshold query (soluble fraction (log2) >= -0.7) on `HMSILTELDIGDKVEVVAGPFKGIQANITRIEPVRKEVTVILLDAPYQLPVTVDADYLKIIQKS`
true

Hello, I need to know if `HMVEDIVLTDAQIEFVKQQAKNGLSAFQISEMIWPEMSVKRFSKQHVAVLDFLREYEPAYVHDSE` has measured soluble fraction (log2) not below -0.7. Thanks!
false
